Observed property: melting point

[[record]]
mol = "Fc1ccccc1Nc1ncc2c(-c3ccccc3Cl)n[nH]c2n1"
observed_property = "melting point"
reported_measurement = "230.2 to 232.4 °C"

[[record]]
mol = "Fc1ccc(Sc2ncc3c(-c4ccccc4Cl)n[nH]c3n2)c(F)c1"
observed_property = "melting point"
reported_measurement = "177.6 to 183.2 °C"

[[record]]
mol = "C[C@H](O)CNc1nc(Oc2ccc(F)cc2F)cc2[nH]nc(-c3ccccc3Cl)c12"
observed_property = "melting point"
reported_measurement = "171.2 to 172 °C"


Next, consider the following compound.
Item: COc1ccccc1-c1n[nH]c2cc(Oc3ccc(F)cc3F)cnc12 | melting point: 143.2 to 144.9 °C

----------
Items are presented alongside their recorded melting point.

# count of solved cases: 4
[[record]]
mol = "OC[C@H](O)COc1nc(Oc2ccc(F)cc2F)nc2[nH]nc(-c3ccccc3Cl)c12"
reported_measurement = "179.2 to 181.3 °C"

[[record]]
mol = "Fc1ccc(Oc2cnc3c(-c4ccccc4Cl)n[nH]c3n2)c(F)c1"
reported_measurement = "240.5 to 241.5 °C"

[[record]]
mol = "C[C@H](O)CNc1nc(Oc2ccc(F)cc2F)nc2[nH]nc(-c3ccccc3Cl)c12"
reported_measurement = "254.6 to 258.2 °C"

[[record]]
mol = "Clc1ccccc1Oc1ncc2c(-c3cccs3)n[nH]c2n1"
reported_measurement = "221.3 to 223.1 °C"


Next, consider the following compound.
Item: Fc1ccc(Oc2ncc3c(-c4ccccc4Cl)n[nH]c3n2)c(F)c1 | melting point: 173.4 to 176.4 °C
